The reported measurements were obtained from patent US20080064735A1.

Can you tell me % feeding damage for the items I'm about to list?
- Test system: Plutella xylostella
- Assay name: Plutella xylostella greenhouse spray test on cauliflower and Bt cauliflower (cry9C)
- Type: in vivo
- Condition label: 10 g active substance/ha; 4 DAA; cauliflower
Numbers only, in %.

Sample answers from the record:
- Compound: "CCc1nn(C)c(C(=O)NCc2ccc(Oc3ccc(C)cc3)cc2)c1Cl [Tolfenpyrad]"
  % feeding damage [%]: 10
- Compound: "N#Cc1nn(-c2c(Cl)cc(C(F)(F)F)cc2Cl)c(N)c1[S+]([O-])C(F)(F)F (stereo not shown) [Fipronil]"
  % feeding damage [%]: 8

Quick batch: % feeding damage for everything below.
1. C/C(=N\C#N)N(C)Cc1ccc(Cl)nc1 [Acetamiprid]
2. CS/C(C)=N\OC(=O)N(C)SN(C)C(=O)O/N=C(\C)SC [Thiodicarb]

Reply:
12
10
